Entries annotated with measured protein stability index
B1: KLHDC10 (parent)
chain: CPIIRIPNRFLRGHRPPPARSGHR

Variants of: B1
Protocol summary: protein stability index of a GFP-peptide fusion (GPS, HEK-293T) (PSI 1-6); higher = more stable;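 further: lentivirally expressed fusions sorted by FACS into six bins by GFP to DsRed ratio, PSI derived from sequencing read proportions per bin multiplied by bin number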
Experimental setup: c terminus: a fixed tail appended

{"columns": ["Mutation name", "protein stability index"],
 "data": [
  ["R5L", 1.55],
  ["N8M", 1.97],
  ["H23M", 1.49],
  ["I4P", 4.21],
  ["R9A", 1.61],
  ["P18R", 1.63],
  ["G22L", 2.02],
  ["R12T", 2.02],
  ["P16L", 1.85],
  ["G22F", 2.01],
  ["P18Y", 1.91],
  ["G22E", 1.78],
  ["F10P", 1.45],
  ["P2I", 2.6],
  ["R9T", 1.46],
  ["I4N", 4.38],
  ["R20I", 1.38],
  ["P7D", 2.91],
  ["I6A", 3.29],
  ["H23L", 1.12],
  ["L11S", 2.46],
  ["R5Y", 2.51]
]}
